A collection of molecules and their measured IC50
# Tested on: PC-3
# assayExplanation: Cytotoxicity against human PC-3 cells by sulforhodamine B assay
# Type: functional, cell-based

chemSmiles: COc1cc([C@@H]2c3cc4c(cc3[C@@H](n3cc(CNc5ccccc5)nn3)[C@H]3COC(=O)[C@H]23)OCO4)cc(OC)c1OC
IC50 [µM]: 0.88
//
chemSmiles: COc1cc([C@@H]2c3cc4c(cc3[C@@H](n3cc(CNc5cccc([N+](=O)[O-])c5)nn3)[C@H]3COC(=O)[C@H]23)OCO4)cc(OC)c1O
IC50 [µM]: 6.63
//
chemSmiles: COc1cc([C@@H]2c3cc4c(cc3[C@H](O)[C@H]3COC(=O)[C@H]23)OCO4)cc(OC)c1OC
IC50 [µM]: 18.9

====

A collection of molecules and their measured log10(IC50)
# System: HCT-15
# assayExplanation: Cytotoxicity against human HCT-15 cells by sulforhodamine B assay
# Format: functional, cell-based
attributeMeasured: log10(IC50) (log10 of the value in nM)

molecule: COc1cc([C@@H]2c3cc4c(cc3[C@@H](O[C@@H]3O[C@@H]5CO[C@@H](C)O[C@H]5[C@H](O)[C@H]3O)[C@H]3COC(=O)[C@H]23)OCO4)cc(OC)c1O [ETOPOSIDE]
quantitativeReadout: 3.17
--
molecule: COc1cc([C@@H]2c3cc4c(cc3[C@@H](n3cc(CNc5ccccc5C)nn3)[C@H]3COC(=O)[C@H]23)OCO4)cc(OC)c1OC
quantitativeReadout: 2.56
--
molecule: COc1cc([C@@H]2c3cc4c(cc3[C@@H](n3cc(CNc5cccc([N+](=O)[O-])c5)nn3)[C@H]3COC(=O)[C@H]23)OCO4)cc(OC)c1O
quantitativeReadout: 3.19
--
molecule: COc1cc([C@@H]2c3cc4c(cc3[C@@H](n3cc(CNc5cccc(Cl)c5)nn3)[C@H]3COC(=O)[C@H]23)OCO4)cc(OC)c1O
quantitativeReadout: 3.63
--
molecule: COc1cc([C@@H]2c3cc4c(cc3[C@@H](n3cc(CNc5ccccc5)nn3)[C@H]3COC(=O)[C@H]23)OCO4)cc(OC)c1OC
quantitativeReadout: 2.15
--
molecule: COc1cc([C@@H]2c3cc4c(cc3[C@@H](n3cc(CNc5ccccc5C)nn3)[C@H]3COC(=O)[C@H]23)OCO4)cc(OC)c1O
quantitativeReadout: 2.15

====

A collection of compounds and their measured IC50
# Test system: PC-3
# assayExplanation: Cytotoxicity against human PC-3 cells by sulforhodamine B assay
# Assay type: functional, cell-based
attributeMeasured: IC50 (µM)

compound: COc1cc([C@@H]2c3cc4c(cc3[C@@H](n3cc(CNc5ccccc5Cl)nn3)[C@H]3COC(=O)[C@H]23)OCO4)cc(OC)c1OC
attributeMeasured: IC50
quantitativeReadout: 3.45
--
compound: COc1cc([C@@H]2c3cc4c(cc3[C@@H](n3cc(CNc5cccc(Cl)c5)nn3)[C@H]3COC(=O)[C@H]23)OCO4)cc(OC)c1OC
attributeMeasured: IC50
quantitativeReadout: 1.18
--
compound: COc1cc([C@@H]2c3cc4c(cc3[C@@H](n3cc(CNc5cccc(Cl)c5)nn3)[C@H]3COC(=O)[C@H]23)OCO4)cc(OC)c1O
attributeMeasured: IC50
quantitativeReadout: 1.37
--
compound: COc1cc([C@@H]2c3cc4c(cc3[C@@H](O[C@@H]3O[C@@H]5CO[C@@H](C)O[C@H]5[C@H](O)[C@H]3O)[C@H]3COC(=O)[C@H]23)OCO4)cc(OC)c1O [ETOPOSIDE]
attributeMeasured: IC50
quantitativeReadout: 17.4
--
compound: COc1cc([C@@H]2c3cc4c(cc3[C@@H](n3cc(CNc5ccccc5C)nn3)[C@H]3COC(=O)[C@H]23)OCO4)cc(OC)c1O
attributeMeasured: IC50
quantitativeReadout: 1.53
--
compound: COc1cc([C@@H]2c3cc4c(cc3[C@@H](n3cc(CNc5ccccc5C)nn3)[C@H]3COC(=O)[C@H]23)OCO4)cc(OC)c1OC
attributeMeasured: IC50
quantitativeReadout: 1.09
